Give measured IC50 for each item. Keep answers brief.
# Tested Target: recombinant human AKR1C3 (Homo sapiens, UniProt P42330)
# Construct: GST (cleaved yes)
# Sequence (P42330 whole entry): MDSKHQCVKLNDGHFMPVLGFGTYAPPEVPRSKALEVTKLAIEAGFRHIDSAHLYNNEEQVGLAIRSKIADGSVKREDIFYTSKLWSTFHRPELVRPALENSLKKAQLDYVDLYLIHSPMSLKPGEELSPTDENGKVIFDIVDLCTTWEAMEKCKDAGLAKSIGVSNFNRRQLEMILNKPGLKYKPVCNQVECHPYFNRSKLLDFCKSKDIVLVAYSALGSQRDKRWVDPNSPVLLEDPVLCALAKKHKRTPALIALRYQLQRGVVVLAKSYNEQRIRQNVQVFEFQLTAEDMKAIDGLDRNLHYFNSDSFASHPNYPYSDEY
# Assay Procedure: AKR1C3-inhibitory activity assay (Coumberone to Coumberol fluorescence)
# Conditions: recombinant human AKR1C3, 10 μM NADPH, 0.3 μM Coumberone, 22° C., typically 90 min
Please respond with the number in nM and leave the unit unwritten.

**Q:** Please give the documented IC50 of CC1(C)CN(C(=O)c2cnn[nH]2)CCN1S(=O)(=O)c1ccc(F)cc1Cl
**A:** 11

**Q:** Tell me measured IC50 for Cc1ccc(S(=O)(=O)N2C[C@H](C)N(C(=O)c3cnn[nH]3)C[C@H]2C)cc1 please.
**A:** 6

**Q:** For the compound C[C@@H]1CN(S(=O)(=O)c2ccc(C(F)(F)F)cc2)C[C@H](C)N1C(=O)c1c[nH]nn1 , give its reported IC50.
**A:** 107

**Q:** Tell me its IC50 given C[C@@H]1CN(C(=O)c2cnn[nH]2)[C@@H](C)CN1S(=O)(=O)c1ccc(F)cc1F as the entry.
**A:** 3

**Q:** # return recorded IC50 for entry Cc1ccc(S(=O)(=O)N2C[C@@H](C)N(C(=O)c3c[nH]nn3)[C@@H](C)C2)cc1
**A:** 24

**Q:** Query IC50 for Cc1ccc(S(=O)(=O)N2CCN(C(=O)c3cnn[nH]3)CC2(C)C)cc1
**A:** 8

**Q:** Please report IC50 for the following compound: CCc1ccc(S(=O)(=O)N2CCN(C(=O)c3cnn[nH]3)CC2(C)C)cc1
**A:** 8

**Q:** Output IC50 of C[C@@H]1CN(S(=O)(=O)c2ccc(F)cc2F)C[C@H](C)N1C(=O)c1c[nH]nn1
**A:** 12

**Q:** Could you please provide reported IC50 for CC1(C)CN(C(=O)c2cnn[nH]2)CCN1S(=O)(=O)c1ccc(F)cc1F ? Thanks!
**A:** 45
